Each recorded value in this set is attributed to paper PMC12646670.

Target: FATP2 (Mus musculus, UniProt O35488)
Construct: endogenous full-length FATP2 in native mouse αTC1-6 pancreatic α cell line (ATCC)
Sequence (O35488 whole entry): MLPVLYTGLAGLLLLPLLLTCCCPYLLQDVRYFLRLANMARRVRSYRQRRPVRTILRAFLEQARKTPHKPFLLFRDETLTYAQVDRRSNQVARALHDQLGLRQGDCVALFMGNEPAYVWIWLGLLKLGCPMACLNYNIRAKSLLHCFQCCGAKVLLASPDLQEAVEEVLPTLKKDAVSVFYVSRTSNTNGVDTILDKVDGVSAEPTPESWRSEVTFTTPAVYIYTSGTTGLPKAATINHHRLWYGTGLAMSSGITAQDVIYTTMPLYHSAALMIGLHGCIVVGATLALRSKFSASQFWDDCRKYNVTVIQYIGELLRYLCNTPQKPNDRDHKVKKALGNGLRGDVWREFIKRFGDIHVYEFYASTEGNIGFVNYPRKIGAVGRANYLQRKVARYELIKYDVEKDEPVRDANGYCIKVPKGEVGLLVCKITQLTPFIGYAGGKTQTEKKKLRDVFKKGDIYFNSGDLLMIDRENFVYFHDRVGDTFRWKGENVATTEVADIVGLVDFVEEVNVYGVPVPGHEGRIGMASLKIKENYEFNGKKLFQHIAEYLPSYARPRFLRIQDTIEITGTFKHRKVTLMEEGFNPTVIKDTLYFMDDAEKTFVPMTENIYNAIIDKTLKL
Assay: BODIPY-labelled C18 fatty acid uptake (QBT fluorescence assay)
Conditions: native αTC1-6 cells; 1 h preincubation, 37°C; 2.5 μM BODIPY-C18 fatty acid with 0.2% fatty acid-free albumin; uptake read at 60 s
Description: BODIPY-labelled C18 fatty acid uptake (QBT fluorescence assay) on FATP2 | fatty acid uptake was blocked by the FATP2 inhibitor lipofermata
EXPERIMENTAL READOUT: IC50

According to the records, this molecule O=C1Nc2ccc(Br)cc2C12NN=C(c1ccccc1)S2 (stereo not shown) displays IC50 of 5.4 µM
